Molecular target: T1, recombinant human EGFR extracellular domain with 6xHis (human, UniProt P00533 25-645)
T1 construct: In-house produced; also called 6xHis EGFR ECD; soluble human EGFR ECD; not shown: 6xHis tag
Test: SPR competition, competitor Ab-10
Procedure: SPR analysis was performed on a Biacore 3000 machine containing four flow cells. A CM5 Biacore chip was conjugated with 10,000 Resonance units (Ru) polyclonal anti-His antibody to flow cells 1-4 according to the manufacturer's instructions. […] Immediately after antigen injection the maximal binding of the Anti-EGFR mAb without competition was established in each flow cell during a reference run. […]
Readout kind: % inhibition (%)
The figure you give is taken to be in %; do not add the unit.

Task: Specify measured % inhibition for antibody 1308 (antibody, human IgG1, kappa, V domains shown, Chimeric IgG1 kappa) VH: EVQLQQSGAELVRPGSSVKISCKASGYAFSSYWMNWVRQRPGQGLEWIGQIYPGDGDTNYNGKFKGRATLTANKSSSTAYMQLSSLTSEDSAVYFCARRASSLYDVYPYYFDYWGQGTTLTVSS VL: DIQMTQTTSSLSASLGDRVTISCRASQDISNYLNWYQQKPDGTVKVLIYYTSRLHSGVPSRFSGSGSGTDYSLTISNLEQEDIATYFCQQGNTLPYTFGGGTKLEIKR .
Result: -3

Task: Specify measured % inhibition for antibody 1261 (antibody, human IgG1, kappa, V domains shown, Chimeric IgG1 kappa) VH: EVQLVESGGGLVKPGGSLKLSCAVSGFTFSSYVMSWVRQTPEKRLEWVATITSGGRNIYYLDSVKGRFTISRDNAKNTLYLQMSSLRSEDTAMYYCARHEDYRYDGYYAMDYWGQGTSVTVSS VL: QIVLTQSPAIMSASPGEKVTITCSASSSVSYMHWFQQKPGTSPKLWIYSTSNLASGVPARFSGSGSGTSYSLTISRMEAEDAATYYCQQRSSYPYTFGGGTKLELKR .
Result: -6

Task: Specify measured % inhibition for antibody 1024 (antibody, human IgG1, kappa, V domains shown, Chimeric IgG1 kappa) VH: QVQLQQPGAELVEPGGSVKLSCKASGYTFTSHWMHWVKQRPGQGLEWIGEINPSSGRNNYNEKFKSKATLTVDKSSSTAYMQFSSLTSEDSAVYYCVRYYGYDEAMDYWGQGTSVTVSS VL: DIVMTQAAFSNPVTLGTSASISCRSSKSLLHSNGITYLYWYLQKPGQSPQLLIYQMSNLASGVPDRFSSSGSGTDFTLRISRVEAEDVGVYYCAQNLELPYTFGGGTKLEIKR .
Result: -5
